In this section, each of the compounds is paired with its reported IC50.
study.system: ROCK2 (Homo sapiens)
Construct: purchased Invitrogen PV3759
assay.details: Kinase IC50 assay, HTRF kinEASE STK S2 kit, ROCK2
Type: biochemical
experimental.conditions: ATP 1 μM, 2.5 ng/well enzyme, 120 min
Kindly answer with a numeric value in µM, unit omitted.

See these solved cases before continuing.
1) O=C1c2ccc(C#Cc3ncc(F)c(Nc4ccc(-c5cn[nH]c5)cc4)n3)n2CCN1CC(F)(F)F    0.445
2) Cc1cc(C(=O)N2CC(O)C2)n(C)c1C#Cc1ncc(F)c(Nc2cc(F)c(-c3cn[nH]c3)cc2F)n1    0.0193
3) Cc1n[nH]c(C)c1-c1ccc(Nc2ccnc(C#Cc3ccc(C(=O)N4CC(F)(F)C4)n3C)n2)cc1    0.585
4) Cn1c(C#Cc2ncc(F)c(Nc3ccc(-c4c[nH]nc4F)cc3)n2)ccc1C(=O)N1CC(F)(F)C1    0.421
5) Cc1cc(C(=O)N2CC(F)(F)C2)n(C)c1C#Cc1ncc(F)c(Nc2ccc(-c3cn[nH]c3C)cc2F)n1    0.131
6) O=C(c1ccc(C#Cc2nccc(Nc3ccc(-c4cn[nH]c4)cc3)n2)s1)N1CC(F)(F)C1    50.5

Attention now turns to another entry.
response.value for Cn1cc(C#Cc2nccc(Nc3ccc(-c4cn[nH]c4)cc3)n2)cc1C(=O)N1CC(F)(F)C1 (field: IC50) = 2.35

* * *

assay.details: Pharmacokinetic study in male SD rats
Format: in vivo
experimental.conditions: rat, intravenous injection 1 mg/kg, plasma
measurement.kind: Tmax (min)
Kindly answer with a numeric value in min, unit omitted.

response.value for Cn1c(C#Cc2nccc(Nc3ccc(-c4cn[nH]c4)cc3)n2)ccc1C(=O)N1CC(F)(F)C1 (field: Tmax) = 4.8

* * *

study.system: ROCK2 (Homo sapiens, UniProt O75116)
Construct: purchased Invitrogen PV3759
Sequence (O75116 5-554 limits assumed): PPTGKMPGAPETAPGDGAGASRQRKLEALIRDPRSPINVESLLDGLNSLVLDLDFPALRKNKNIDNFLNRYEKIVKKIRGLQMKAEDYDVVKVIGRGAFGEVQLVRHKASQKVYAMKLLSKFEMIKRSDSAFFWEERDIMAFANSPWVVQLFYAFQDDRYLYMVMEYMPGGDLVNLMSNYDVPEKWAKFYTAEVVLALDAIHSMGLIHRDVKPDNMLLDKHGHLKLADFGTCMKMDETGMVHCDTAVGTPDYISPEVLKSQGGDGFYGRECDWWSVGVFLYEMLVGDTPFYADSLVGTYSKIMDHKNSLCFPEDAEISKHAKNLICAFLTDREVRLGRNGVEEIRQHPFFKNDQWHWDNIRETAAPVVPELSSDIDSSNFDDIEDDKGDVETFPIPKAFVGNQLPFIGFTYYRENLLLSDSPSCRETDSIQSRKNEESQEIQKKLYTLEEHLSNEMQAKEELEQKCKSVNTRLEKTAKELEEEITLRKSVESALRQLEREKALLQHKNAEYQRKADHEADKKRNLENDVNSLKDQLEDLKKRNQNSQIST
assay.details: Kinase IC50 assay, HTRF kinEASE STK S2 kit, ROCK2
Assay type: biochemical
experimental.conditions: ATP 1 μM, 2.5 ng/well enzyme, 120 min
Define the label as Met when IC50 is strictly less than 0.08 µM and as Not met in all remaining cases.

1) Cc1cc(C(=O)N2CC(F)(F)C2)n(C)c1C#Cc1ncc(F)c(Nc2cnc(-c3cn[nH]c3C)cc2F)n1    Met

A record lists Cc1cc(C(=O)N2CC(F)(F)C2)n(C)c1C#Cc1ncc(F)c(Nc2cc(F)c(-c3cn[nH]c3)cc2F)n1 . Is its IC50 below 0.08 µM?
Met

A record lists Cc1[nH]ncc1-c1ccc(Nc2nc(C#Cc3ccc(C(=O)N4CC(F)(F)C4)n3C)ncc2F)cc1 . Is its IC50 below 0.08 µM?
Met

A record lists Cn1c(C#Cc2nc(Nc3ccc(-c4cn[nH]c4)cc3)c3ccccc3n2)ccc1C(=O)N1CC(F)(F)C1 . Is its IC50 below 0.08 µM?
Not met

A record lists Cc1cc(Nc2ccnc(C#Cc3ccc(C(=O)N4CC(F)(F)C4)n3C)n2)ccc1-c1cn[nH]c1 . Is its IC50 below 0.08 µM?
Not met

A record lists Cc1cc(C(=O)N2CC(F)(F)C2)n(C)c1C#Cc1ncc(F)c(Nc2ccc(-c3cn[nH]c3C)cc2)n1 . Is its IC50 below 0.08 µM?
Met
